# TARGET_ENTITY: WNT4; note: reference of the scale not given here
# PROTOCOL_DETAILS: pooled miR-30 sensor sort-seq; sequence = guide strand
# EXPERIMENTAL_SETUP: shRNA
Category | rule: reported sensor-assay potency score (higher = more potent) within range, see band 1 = under -1, band 2 = from -1 up to 0.07, band 3 = 0.07 and over

[
  {
    "RESIDUE_STRING": "TTGGACGTCTTGTTGCATGTGC",
    "CLASSIFICATION": "band 3"
  },
  {
    "RESIDUE_STRING": "TTGTCAGAGCATCCTGACCACT",
    "CLASSIFICATION": "band 1"
  },
  {
    "RESIDUE_STRING": "TACACCAGGTCCTCATCTGTGT",
    "CLASSIFICATION": "band 2"
  },
  {
    "RESIDUE_STRING": "TTTCTCGCACGTCTCCTCCTCT",
    "CLASSIFICATION": "band 2"
  },
  {
    "RESIDUE_STRING": "TTGCACATCTGCACCTGCCTCT",
    "CLASSIFICATION": "band 3"
  },
  {
    "RESIDUE_STRING": "TTGAACTGTGCGTTGCGTGGCA",
    "CLASSIFICATION": "band 3"
  },
  {
    "RESIDUE_STRING": "TGGAATTTGCAGCTGCAGCGTT",
    "CLASSIFICATION": "band 2"
  },
  {
    "RESIDUE_STRING": "TCGAGTGTGGAGCAGTTCCAGC",
    "CLASSIFICATION": "band 1"
  }
]
